Molecular target: hERG (Homo sapiens)
Sequence (Q12809 whole entry): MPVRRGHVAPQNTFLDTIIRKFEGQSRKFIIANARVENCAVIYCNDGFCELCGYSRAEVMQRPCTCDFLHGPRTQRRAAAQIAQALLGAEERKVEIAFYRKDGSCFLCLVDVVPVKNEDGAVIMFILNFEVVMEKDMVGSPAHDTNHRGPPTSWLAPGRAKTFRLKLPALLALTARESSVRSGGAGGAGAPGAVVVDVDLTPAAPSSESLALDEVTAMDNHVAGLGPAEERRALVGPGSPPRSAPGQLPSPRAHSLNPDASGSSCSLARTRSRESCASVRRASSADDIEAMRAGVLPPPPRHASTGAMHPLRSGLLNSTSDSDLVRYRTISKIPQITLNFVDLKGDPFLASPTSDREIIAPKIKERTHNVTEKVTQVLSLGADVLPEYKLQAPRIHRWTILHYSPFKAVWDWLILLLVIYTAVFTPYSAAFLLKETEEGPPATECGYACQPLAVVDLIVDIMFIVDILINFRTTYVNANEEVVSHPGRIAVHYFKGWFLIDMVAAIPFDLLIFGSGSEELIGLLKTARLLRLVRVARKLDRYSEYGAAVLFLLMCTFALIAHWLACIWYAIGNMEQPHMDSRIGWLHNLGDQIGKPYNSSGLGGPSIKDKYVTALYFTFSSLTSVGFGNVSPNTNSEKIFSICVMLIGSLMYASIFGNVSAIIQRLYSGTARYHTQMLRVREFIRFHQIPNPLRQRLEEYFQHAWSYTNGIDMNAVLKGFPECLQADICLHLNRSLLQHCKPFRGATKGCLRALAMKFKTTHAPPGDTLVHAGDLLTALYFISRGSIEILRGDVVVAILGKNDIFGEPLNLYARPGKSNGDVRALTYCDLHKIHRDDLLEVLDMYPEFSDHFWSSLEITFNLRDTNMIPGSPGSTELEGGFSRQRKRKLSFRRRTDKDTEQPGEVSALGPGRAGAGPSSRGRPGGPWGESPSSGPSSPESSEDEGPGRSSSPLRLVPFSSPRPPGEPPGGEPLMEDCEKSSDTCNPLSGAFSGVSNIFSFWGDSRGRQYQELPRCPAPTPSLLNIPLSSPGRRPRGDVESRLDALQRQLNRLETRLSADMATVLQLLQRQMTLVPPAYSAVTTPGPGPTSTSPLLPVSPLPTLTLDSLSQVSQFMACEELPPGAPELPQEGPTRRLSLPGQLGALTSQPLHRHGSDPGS
Conditions: read-out: hERG

[
  {
    "molecular.string": "Cc1cc(-c2c(C)nn(C)c2C)cnc1-c1nnc(N(C)Cc2ccc3ncc(-c4ccc(CN(C)C)cc4)n3c2)o1",
    "IC50 [µM]": 5.7
  }
]
